Consider the following compounds and their measured Percentages of flavonolignan components of silymarin in the sample readings.
method_notes: Silymarin saturated solubility with CAPTISOL® (Example 1, HPLC)
test_parameters: CAPTISOL® (0.05M), saturated solubility
Please state the figure in %; there is no need to write the unit.

cpd_smiles | measure_unit | quantitative_readout
COc1cc([C@H]2Oc3cc([C@H]4Oc5cc(O)cc(O)c5C(=O)[C@@H]4O)ccc3O[C@@H]2CO)ccc1O | % | 9.55
COc1cc([C@H]2Oc3c(O)cc([C@H]4Oc5cc(O)cc(O)c5C(=O)[C@@H]4O)cc3[C@@H]2CO)ccc1O | % | 3.98
COc1cc([C@@H]2Oc3cc([C@H]4Oc5cc(O)cc(O)c5C(=O)[C@@H]4O)ccc3O[C@H]2CO)ccc1O | % | 24.01

Could you now look at the following compound, please?
Report Percentages of flavonolignan components of silymarin in the sample for COc1cc([C@@H]2Oc3c(O)cc([C@H]4Oc5cc(O)cc(O)c5C(=O)[C@@H]4O)cc3[C@H]2CO)ccc1O please.
41.07

====

method_notes: Solubility of silymarin components in water (Example 10, HPLC)
Type: physicochemical
test_parameters: water
Parameter solubility: see the listing below.
The answer is to be given in µg/mL; state only the numeric part.

Example molecules with recorded solubility:
cpd_smiles | solubility [µg/mL]
COc1cc([C@H]2Oc3ccc([C@H]4Oc5cc(O)cc(O)c5C(=O)[C@@H]4O)cc3O[C@@H]2CO)ccc1O | 18.8
COc1cc([C@@H]2Oc3cc([C@H]4Oc5cc(O)cc(O)c5C(=O)[C@@H]4O)ccc3O[C@H]2CO)ccc1O | 21.9
COc1cc([C@H]2Oc3cc([C@H]4Oc5cc(O)cc(O)c5C(=O)[C@@H]4O)ccc3O[C@@H]2CO)ccc1O | 7.71

The record that follows has no solubility shown yet.
Can you share its solubility? I mean this molecule: COc1cc([C@@H]2[C@H]3CO[C@@]4(O)C(=O)[C@@H]2C=C([C@H]2Oc5cc(O)cc(O)c5C(=O)[C@@H]2O)[C@@H]34)ccc1O
232

====

Recorded solubility by entry
method_notes: physchem
test_parameters: 25 °C, water, thermodynamic from solid, Solubility (mg/ml) of flavonolignan components of silymarin
Numeric only. Scale: µg/mL

molecule | measure_unit | solubility
COc1cc([C@H]2Oc3ccc([C@H]4Oc5cc(O)cc(O)c5C(=O)[C@@H]4O)cc3O[C@@H]2CO)ccc1O [Isosilybin A] | µg/mL | 40

Continue with the molecule presented below.
Look up solubility: COc1cc([C@@H]2[C@H]3CO[C@@]4(O)C(=O)[C@@H]2C=C([C@H]2Oc5cc(O)cc(O)c5C(=O)[C@@H]2O)[C@@H]34)ccc1O [Silydianin]
70

====

method_notes: Pharmacokinetic study in rat
Type: in vivo
test_parameters: in vivo, iv, AUC(0-2 h) (ng · h/mL)
experimental_endpoint: AUC(0-t) (ng·h/mL)
State just the number; it will be interpreted in ng·h/mL.

Answered examples (2):
molecule | experimental_endpoint | measure_unit | quantitative_readout
COc1cc([C@H]2Oc3cc([C@H]4Oc5cc(O)cc(O)c5C(=O)[C@@H]4O)ccc3O[C@@H]2CO)ccc1O [Silybin A] | AUC(0-t) | ng·h/mL | 3440
COc1cc([C@@H]2Oc3cc([C@H]4Oc5cc(O)cc(O)c5C(=O)[C@@H]4O)ccc3O[C@H]2CO)ccc1O [Silybin B] | AUC(0-t) | ng·h/mL | 5070

Please give the measured AUC(0-t) for this molecule: COc1cc([C@H]2Oc3ccc([C@H]4Oc5cc(O)cc(O)c5C(=O)[C@@H]4O)cc3O[C@@H]2CO)ccc1O [Isosilybin A]
1970

Origin of values: patent US10702568B2
